Reported Ratio IC50 by item:
assay: Selectivity for rat recombinant FAAH over KIAA1363
QUANTITY_MEASURED: Ratio IC50

1. O=C(CCCCCCc1ccc([N+](=O)[O-])cc1)c1ncc(-c2ccccn2)o1: > 200000
2. O=C(CCCCCCc1cccc2ccccc12)c1ncc(-c2ccccn2)o1: > 10000
3. CSc1ccccc1CCCCCCC(=O)c1ncc(-c2ccccn2)o1: > 3300
4. O=C(CCc1ccc(Sc2ccccc2)cc1)c1ncc(-c2ccccn2)o1: > 50000
